System: MDA-MB-468 breast
Assay: NCI-60 one-dose screen, 48 h (100 = growth as untreated, 0 = no growth, -100 = all killed)
Settings: 10 µM unless noted
Experimental: Growth inhibition of the MDA-MB-468 human Breast tumor cell line is measured as a screen for anti-cancer activity. Cells are grown in 96 well plates and exposed to the test compound for 48 hours. Compounds are tested at a single concentration, which is 10^-5 M for most compounds. The reported endpoint is percent growth (GI% or GIPRCNT), where numbers from 0 - 100% represent growth inhibition, and numbers from -100% - 0 represent cell death. […]
About 83,000 compounds went through this panel and 20% of them were active in at least one assay; those are over-represented in the sample as a whole.
Provide the recorded growth for the entries that follow.
A number alone suffices; assume %.

Answer with the recorded growth for the compound listed here: `CC1=C(N2CCOCC2)C(N2CCOCC2)=C(C)C(=O)C1=O`
97.1

Answer with the recorded growth for the compound listed here: `Nc1n[nH]c2cccc(C#Cc3cccc(NC(=O)c4ccc(N5CCOCC5)c(C(F)(F)F)c4)c3)c12`
21.8

Answer with the recorded growth for the compound listed here: `C#CCOc1cccc(Nc2ncnc3cc(NC(=O)CCl)ccc23)c1`
-52.5

Answer with the recorded growth for the compound listed here: `COc1cc2oc(-c3cccc(C(=O)Nc4ccc(Cl)cc4)c3)cc(=O)c2c(OCCNC(=O)[C@@H](N)CO)c1OC`
-85.6

Answer with the recorded growth for the compound listed here: `COc1ccc(-c2nn(-c3cccc(Cl)c3)cc2C=C(C#N)C#N)cc1`
-2.82

Answer with the recorded growth for the compound listed here: `O=C(c1nn(-c2ccc(Cl)cc2)cc1O)n1nc(C(F)(F)F)cc1-c1ccccc1`
32.8

Answer with the recorded growth for the compound listed here: `CC(=O)CC(C)(C)c1ccc(Cl)cc1`
90.4

Answer with the recorded growth for the compound listed here: `Cc1ccc(-n2cc(/C=C/C(=O)c3ccc(S(C)(=O)=O)cc3)c(-c3ccc(S(C)(=O)=O)cc3)n2)cc1`
106

Answer with the recorded growth for the compound listed here: `CC(=O)c1cc(C(=O)c2ccc3c(c2)Sc2ccccc2N3)c2c(C)cc(C)cn12`
14

* * *

tested on: HCT-15 colon; test: NCI-60 one-dose screen, 48 h; conditions: 10 µM
About 83,000 compounds went through this panel and 20% of them were active in at least one assay; those are over-represented in the sample as a whole. Activity calls are given as the source filed them. The calls were made as follows: active = growth percent below 10; inactive = the rest.
Select the matching outcome among active, inactive

Would you mind telling me which call this test gave `CC1(C)CC(=O)C2=C(C1)N(Cc1ccc(C(=O)O)cc1)C1=C(C(=O)CC(C)(C)C1)C2c1ccc(Cl)cc1` ?
inactive

Would you mind telling me which call this test gave CCOC(=O)c1ccc(NC(=O)CSC(CC(=O)c2sc(Nc3ccccn3)nc2C)c2ccccc2F)cc1 (stereo not drawn) ?
active

Would you mind telling me which call this test gave `O=C1S/C(=C\c2ccc([N+](=O)[O-])cc2)C(=O)N1CCN1CCCCC1` ?
inactive

Would you mind telling me which call this test gave COc1cc(C2CC(c3ccccc3)=Nc3c(N)nc(N)nc3N2)ccc1Oc1nc(NCCO)nc(N2CCOCC2)n1 (stereo not drawn) ?
inactive

Would you mind telling me which call this test gave `COc1ccc(C(=O)COc2ccc(NC(=O)Nc3ccccc3)cc2)cc1` ?
inactive

Would you mind telling me which call this test gave COc1cc(C2CC(c3ccc(Oc4ccc(Cl)cc4)cc3)=NN2c2nc(-c3ccc(Cl)cc3)c(C#N)c(N3CCOCC3)n2)cc(OC)c1OC (stereo not drawn) ?
inactive

Would you mind telling me which call this test gave `COc1ccc(OC)c(-n2cc(C#N)c(N)c2C(=O)c2ccc(Cl)cc2Cl)c1` ?
inactive

Would you mind telling me which call this test gave `COc1cc2oc(-c3cccc(C(=O)Nc4ccc(Cl)cc4)c3)cc(=O)c2c(OCCN)c1OC` ?
active

* * *

system: MDA-MB-468 breast; assay: NCI-60 one-dose screen, 48 h (100 = growth as untreated, 0 = no growth, -100 = all killed); settings: 10 µM unless noted
About 83,000 compounds went through this panel and 20% of them were active in at least one assay; those are over-represented in the sample as a whole.
Cut-off 80% on growth: below means y, at or above means n.

Please determine if `CC/C=C\C[C@H](O)C/C=C1/C(=O)C=C[C@@]1(C)C/C=C\CCCC(=O)OC` is below 80% in terms of growth.
n

Please determine if `CCCCCCCCCCOC(C)=O` is below 80% in terms of growth.
n

Please determine if `O=[N+]([O-])c1cc(C(F)(F)F)ccc1Sc1ccc(C(F)(F)F)cc1[N+](=O)[O-]` is below 80% in terms of growth.
y

Please determine if `Cn1ncc(Cl)c1-c1cc(C(=O)N[C@H](CN)Cc2ccc(F)c(F)c2)oc1Cl` is below 80% in terms of growth.
y

Please determine if `CO[C@H]1/C=C/O[C@@]2(C)Oc3c(C)c(O)c4c(c3C2=O)C(=O)C(/C=N/N(c2ccccc2)c2ccccc2)=C(NC(=O)/C(C)=C\C=C\[C@H](C)[C@H](O)[C@@H](C)[C@@H](O)[C@@H](C)[C@H](OC(C)=O)[C@@H]1C)C4=O` is below 80% in terms of growth.
y

Please determine if `Cc1ccc2nc(Cl)cc(=O)n2c1` is below 80% in terms of growth.
n

Please determine if `O=c1c2cc(Br)cc(Br)c2nc(-c2ccc(Cl)cc2)n1/N=C/c1cccc(F)c1` is below 80% in terms of growth.
y

Please determine if `CCCCOc1ccc(/C(C)=N/Nc2cc(C)nc3ccc(Br)cc23)cc1` is below 80% in terms of growth.
n

Please determine if `CN1CCN(c2ccc(/C=N/Nc3nc4ccccc4c(=O)n3-c3ccccc3)cc2)CC1` is below 80% in terms of growth.
n

Please determine if `Cn1c(N)c(N=O)c(=O)[nH]c1=O` is below 80% in terms of growth.
n

Please determine if `COc1ccc(-c2cc(-c3ccc(Cl)cc3)nc(SCCCC(=O)NO)n2)cc1` is below 80% in terms of growth.
y

Please determine if `N/C(=N\c1nc2c(Cl)cc(Cl)cc2s1)C(Cl)(Cl)Cl` is below 80% in terms of growth.
y

Please determine if `Cc1cccc(C)c1NC(=O)Nc1ccccc1` is below 80% in terms of growth.
y

Please determine if `O=C(Nc1ccc(Cl)c(Cl)c1)Nc1c(Oc2ccc(Cl)c(Cl)c2)ccc(Cl)c1S(=O)(=O)O` is below 80% in terms of growth.
y

Please determine if O=c1c2c(c3ccccc3n1-c1ccccc1)NC(=S)NC2c1ccc(Cl)cc1 (stereo not drawn) is below 80% in terms of growth.
n

Please determine if CC1(C)CC[C@]2(C(=O)O)CC[C@]3(C)C(=CCC4[C@@]5(C)C[C@@H](O)[C@@H]6OC(c7ccccc7O)OC[C@@]6(C)C5CC[C@]43C)C2C1 (stereo partly drawn) is below 80% in terms of growth.
y

Please determine if `O=C(CNCCN1CCOCC1)N1c2cccc3cccc(c23)N(C(=O)CNCCN2CCOCC2)C1c1cn(-c2ccccc2)nc1-c1cccc([N+](=O)[O-])c1` is below 80% in terms of growth.
y

Please determine if `C[C@@H](Oc1cc(-n2cnc3ccc(CN4CCN(C)CC4)cc32)sc1C(N)=O)c1ccccc1C(F)(F)F` is below 80% in terms of growth.
y

* * *

Test system: MDA-MB-468 breast
Assay: NCI-60 one-dose screen, 48 h
Conditions: 10 µM unless noted
Experimental: Growth inhibition of the MDA-MB-468 human Breast tumor cell line is measured as a screen for anti-cancer activity. Cells are grown in 96 well plates and exposed to the test compound for 48 hours. Compounds are tested at a single concentration, which is 10^-5 M for most compounds. The reported endpoint is percent growth (GI% or GIPRCNT), where numbers from 0 - 100% represent growth inhibition, and numbers from -100% - 0 represent cell death. […]
This is part of a sample that, as a whole, favours compounds with a hit. Of some 83,000 tested, about 20% had one in any assay. Activity calls are given as the source filed them. How the source made its calls: active means growth percent below 10; inactive means the rest.
Select the matching outcome among TRUE (active), FALSE (inactive)

Would you mind telling me which call this test gave `Cn1ccc(Cc2cnc(N)s2)n1` ?
FALSE

Would you mind telling me which call this test gave CCCC(F)C(=O)O (stereo unspecified) ?
FALSE

Would you mind telling me which call this test gave `CCNC(=O)Oc1ccc(/C(=C(/CC)Cc2ccccc2)c2ccc(OCCN3CCCC3)cc2)cc1` ?
FALSE

Would you mind telling me which call this test gave CCN(CC)CCC(CNc1c2ccc(Cl)cc2nc2ccc(OC)cc12)c1ccccc1 (stereo unspecified) ?
TRUE

Would you mind telling me which call this test gave `COc1ccc(Nc2ncc(Br)c(NCCCNC(=O)C3CCC3)n2)cc1` ?
FALSE

Would you mind telling me which call this test gave COc1cc([C@@H]2c3cc4c(cc3C(O[C@@H]3O[C@@H]5CO[C@@H](c6cccs6)OC5[C@H](O)[C@H]3O)C3COC(=O)[C@@H]32)OCO4)cc(OC)c1O (stereo partly specified) ?
TRUE

Would you mind telling me which call this test gave `Oc1c(Cl)cc(Cl)cc1C(c1cc(Cl)cc(Cl)c1O)C(Cl)(Cl)Cl` ?
TRUE

Would you mind telling me which call this test gave `COc1ccc(OC)c(-c2nc(SCC(=O)c3ccc(Br)cc3)nc(Nc3ccc(S(N)(=O)=O)cc3)c2C#N)c1` ?
FALSE

Would you mind telling me which call this test gave `C/C(=N/NC(=S)Nc1ccccc1)c1nc2ccc(Cl)cc2[nH]1` ?
TRUE

Would you mind telling me which call this test gave `CN(C)c1ccc2c(N(C)C)cc(N(C)C)nc2c1` ?
TRUE

Would you mind telling me which call this test gave `Nc1c(C(=O)Nc2ccccn2)sc2nc3c(cc12)CCCCCC3` ?
TRUE
